B1: Azoarcus group I ribozyme (parent)
chain: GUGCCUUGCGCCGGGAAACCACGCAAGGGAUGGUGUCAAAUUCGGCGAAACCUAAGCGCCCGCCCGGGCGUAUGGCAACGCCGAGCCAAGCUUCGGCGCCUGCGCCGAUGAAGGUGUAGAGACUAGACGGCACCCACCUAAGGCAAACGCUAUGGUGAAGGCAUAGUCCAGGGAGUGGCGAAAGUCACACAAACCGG

- Variants of: B1
- Protocol text: reverse-splicing fitness (ratio to wild type); higher = more active; in vitro selection; Mg2+ level not given
Entries and their measured reverse-splicing fitness follow.
# respond with the number and nothing more

Guide cases for reverse-splicing fitness, answers given:
C82U A111G A120C C150G C169A U176G = 0.00578
C82G A145G C169U U176A = 0.0138
A111U A120G A145C C169U U176G = 0.00629
A120G A145G C169A U176A = 0.114
C82G A111U A120C A145C C150A U176A = 0.0111

Kindly note the recorded reverse-splicing fitness for C82G A120C C150A C169U , which is 0.0118

Kindly note the recorded reverse-splicing fitness for A111G A120G A145G C150U C169A , which is 0.131

Kindly note the recorded reverse-splicing fitness for C82A A111C A120U C150U C169U U176C , which is 0.00534

Kindly note the recorded reverse-splicing fitness for C82G A111U A145U C169A , which is 0.00754

Kindly note the recorded reverse-splicing fitness for C82A A111C A120U A145C C150U C169A U176C , which is 0.00378

Kindly note the recorded reverse-splicing fitness for A111U A145U C150U U176C , which is 0.641

Kindly note the recorded reverse-splicing fitness for C82A A145U C150A C169A U176G , which is 0.0053

Kindly note the recorded reverse-splicing fitness for C82A A111U A120C A145G C169A U176A , which is 0.0312
